# credit: patent US7338799B2

Molecular target: mCHT (Mus musculus, UniProt Q8BGY9, Q119K/Q86H)
Construct: expressed in transfected cells; host or cells: COS-7 (transient, pcDNA3)
Sequence (Q8BGY9 with tags, fused parts or gaps Q86H/Q119K): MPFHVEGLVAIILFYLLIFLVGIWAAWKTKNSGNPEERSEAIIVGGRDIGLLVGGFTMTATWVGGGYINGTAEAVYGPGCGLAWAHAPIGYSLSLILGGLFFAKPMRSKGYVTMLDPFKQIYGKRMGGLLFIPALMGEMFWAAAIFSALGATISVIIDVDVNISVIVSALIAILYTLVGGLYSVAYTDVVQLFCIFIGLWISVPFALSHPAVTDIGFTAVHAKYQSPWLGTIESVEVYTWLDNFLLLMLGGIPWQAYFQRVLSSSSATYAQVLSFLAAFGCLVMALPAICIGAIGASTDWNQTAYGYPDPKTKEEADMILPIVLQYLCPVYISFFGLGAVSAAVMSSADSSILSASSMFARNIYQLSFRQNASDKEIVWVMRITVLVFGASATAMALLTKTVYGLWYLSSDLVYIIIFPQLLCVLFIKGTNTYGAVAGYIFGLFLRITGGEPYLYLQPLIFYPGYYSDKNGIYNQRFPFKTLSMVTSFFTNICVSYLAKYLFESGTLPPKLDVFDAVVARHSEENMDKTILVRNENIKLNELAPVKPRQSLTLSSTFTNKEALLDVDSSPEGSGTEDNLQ
Assay: [3H]HC-3 binding in membrane fractions of mCHT transfected COS-7 cells
Settings: mCHT transfected COS-7 cell membrane; read-out: Ki in inhibiting [3H]HC-3 binding
pKi: −log10 of the molar value.
Result Type: pKi

> print(dat)
                                   molecule  result.type  value.measured
1  C[N+]1(C)CCOC(O)(c2ccc(-c3ccc(C4(O)C[N+](C)(C)CCO4)cc3)cc2)C1.[Br-].[Br-] (stereo not shown) [HC-3, hemicholinium-3]          pKi            8.30

###

biological target: hCHT (Homo sapiens, UniProt Q9GZV3); construct: The hCHT cDNA encodes a protein of 580 amino acids; expressed in transfected cells; host or cells: COS-7 (transient, FuGene 6, pcDNA3); assay: [3H]choline transport in resealed membrane vesicles from hCHT transfected COS-7 cells; assay type: biochemical
Sequence (Q9GZV3 whole entry): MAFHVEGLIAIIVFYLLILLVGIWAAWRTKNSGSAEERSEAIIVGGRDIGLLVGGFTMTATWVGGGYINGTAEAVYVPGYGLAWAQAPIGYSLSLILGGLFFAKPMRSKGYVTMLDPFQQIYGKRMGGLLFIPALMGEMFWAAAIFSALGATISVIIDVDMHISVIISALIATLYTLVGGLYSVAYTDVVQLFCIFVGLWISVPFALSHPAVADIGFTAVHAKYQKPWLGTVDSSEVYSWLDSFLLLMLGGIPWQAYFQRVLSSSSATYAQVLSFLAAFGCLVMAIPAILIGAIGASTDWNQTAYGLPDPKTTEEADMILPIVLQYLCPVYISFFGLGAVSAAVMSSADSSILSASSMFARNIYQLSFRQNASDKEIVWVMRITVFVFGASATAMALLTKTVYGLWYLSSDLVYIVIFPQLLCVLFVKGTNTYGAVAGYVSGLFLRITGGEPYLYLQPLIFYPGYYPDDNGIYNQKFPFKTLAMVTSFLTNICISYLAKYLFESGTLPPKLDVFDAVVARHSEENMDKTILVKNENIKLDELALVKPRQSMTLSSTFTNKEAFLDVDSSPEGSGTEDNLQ
pKi: −log10 of the molar value.
Result Type: pKi

> print(dat)
        chemical.smiles                            tested.on  value.measured
1  CC(=O)OCC[N+](C)(C)C  hCHT (Homo sapiens, UniProt Q9GZV3)            6.24
2        C[N+](C)(C)CCO  hCHT (Homo sapiens, UniProt Q9GZV3)            6.91

###

target: mCHT (Mus musculus, UniProt Q8BGY9, Q119K/Q86H); construct: expressed in transfected cells; host or cells: COS-7 (transient, pcDNA3); assay: choline uptake in resealed membrane vesicles from mCHT transfected COS-7 cells; assay type: biochemical; settings: read-out: IC50 for inhibition of mCHT-mediated choline uptake; resealed membrane vesicles, mCHT
Result Type: IC50 (nM)

> print(dat)
                                   compound                                 tested.on  result.type  quantity.unit  value.measured
1  C[N+]1(C)CCOC(O)(c2ccc(-c3ccc(C4(O)C[N+](C)(C)CCO4)cc3)cc2)C1.[Br-].[Br-] (stereo not shown) [HC-3, hemicholinium-3]  mCHT (Mus musculus, UniProt Q8BGY9, Q119K/Q86H)         IC50             nM               5
